The reported numbers originate from PubChem BioAssay (NCI).

- System: KM12 colon
- ASSAY_REMARKS: NCI-60 one-dose screen, 48 h
- TEST_PARAMETERS: 10 µM unless noted
Compounds without any hit were thinned out: in the full panel of roughly 83,000, 20% have a hit. The source made the active and inactive calls. How the source made its calls: active means growth percent below 10; inactive means the rest.
Labels: active, inactive

{"columns": ["MOLECULE", "CLASS"],
 "data": [
  ["CC1(C)CC(=O)C2=C(C1)OC1=C(C(=O)CC(C)(C)C1)C2c1ccc(OCc2cn(-c3ccc(F)cc3F)nn2)cc1", "inactive"],
  ["CCOC(=O)c1cnc2c(OC)ccc(OC)c2c1Cl", "inactive"],
  ["CN1CCN(Cn2nc(-c3cc(F)c(Cl)cc3Cl)n(/N=C/c3ccc(N(C)C)cc3)c2=S)CC1", "inactive"],
  ["COc1ccc(Cl)cc1NC(=O)c1cc2c(n1C)-c1nc(NC(=O)C(C)(C)C)sc1CC2", "inactive"],
  ["CCCCCn1ncc(-c2c(O)c(O)cc3c(O)c(-c4c(C)cc5c(-c6cnn(CCCCC)n6)c(O)c(O)cc5c4O)c(C)cc23)n1", "active"],
  ["CC1(C)Cc2c(Br)c(Br)c(Br)c(OCC(O)CN3CCN(c4ccccn4)CC3)c2O1 (configuration not stated)", "inactive"],
  ["COc1ccc(C(=O)Cn2cnc3c(Nc4cc(C(=O)Nc5ccc(N6CCN(CCO)CC6)cc5)ccc4C)ncnc32)cc1", "inactive"],
  ["OCc1cnccc1NC12CC3CC(CC(C3)C1)C2", "inactive"],
  ["COc1cc2ncnc(Oc3ccc(NC(=O)Nc4ccc(C5(C#N)CCCC5)cc4)c4ccccc34)c2cc1OC", "inactive"],
  ["O=C1c2ccccc2OC=C(c2ccccc2)N1CCCCN1CCCCC1", "inactive"],
  ["CC(=O)O[C@@H]1[C@@H](OC(C)=O)[C@H](OC(C)=O)CO[C@H]1Nc1cccc2ccccc12", "inactive"],
  ["COc1ccc(/C=C/C(=O)c2ccc(Oc3ncnc4ccccc34)cc2)cc1OC", "inactive"],
  ["CCC1(C(N)=O)CC2C=CC1CC2 (configuration not stated)", "inactive"],
  ["COc1ccc(-c2nn(-c3ccc(NC(=O)Nc4ccc(Cl)c(C(F)(F)F)c4)cc3)cc2-c2ccncc2)cc1Cl", "active"],
  ["CC(C)(C)NC(C1=CC(C)(C)c2ccccc2C1=O)c1ccccc1 (configuration not stated)", "active"],
  ["O=[N+]([O-])c1cccc2cc(S(=O)(=O)O)ccc12", "inactive"],
  ["Nc1ccc(S(=O)(=O)Nc2ccnn2-c2ccccc2)cc1", "inactive"],
  ["C#C[C@@]1(O)[C@@H](CO)O[C@@H](n2cc(C(F)(F)F)c3c(N)ncnc32)[C@@H]1O", "active"],
  ["O=C(COc1ccc(Cl)cc1Cl)N1N=C(c2ccc(Cl)cc2Cl)CC1(O)c1cc(F)c(Cl)cc1Cl (configuration not stated)", "inactive"],
  ["CCN(CC)CCNc1ccc([N+](=O)[O-])c2sc3cc(Cl)ccc3c(=O)c12", "inactive"],
  ["COc1ccccc1N1CCN(CCCOc2ccc(OCCCN3CCN(c4ccccc4OC)CC3)c(C(=O)c3cc(OC)c(OC)c(OC)c3)c2)CC1", "inactive"],
  ["CCCC(=O)Oc1ccc(/C(=C(\\C)c2ccc(Cl)cc2)c2ccc(OCCN(CC)CC)cc2)cc1", "active"],
  ["COc1ccc(-c2cc(-c3nnc(SC/C(=N\\O)c4ccccc4)n3-c3ccccc3)c3ccccc3n2)cc1", "inactive"],
  ["COc1cc(NS(=O)(=O)c2ccc(N)cc2)ncn1", "inactive"],
  ["C=C1C(=O)O[C@H]2[C@H]1CC/C(CNC(=O)/C1=C/CC[C@@]3(C)O[C@H]3[C@H]3OC(=O)C(=C)[C@@H]3CC1)=C\\CC[C@@]1(C)O[C@@H]21", "inactive"],
  ["COc1ccc(-c2nn(-c3ccc(NC(=O)Nc4cc(C(F)(F)F)cc(C(F)(F)F)c4)cc3)cc2-c2ccncc2)cc1Cl", "active"],
  ["O=C(/C=C/c1ccccc1)Oc1ccc(/C=C/c2cc(OC(=O)/C=C/c3ccccc3)cc(OC(=O)/C=C/c3ccccc3)c2)cc1", "inactive"],
  ["C=C1C(=O)O[C@H]2[C@H]1CC/C(COC(=O)c1cc(OC)c(OC)c(OC)c1)=C\\CC[C@@]1(C)O[C@@H]21", "inactive"],
  ["O=C(Nc1ccc(-n2ccc3c(NC(=O)c4ccccc4)nccc32)cc1)c1cccc(C(F)(F)F)c1", "inactive"],
  ["O=C(O)c1cccc(S(=O)(=O)c2ccccc2)c1", "inactive"],
  ["CN(C)CCNc1nc2ccccc2c2c(=O)c3ccccc3sc12", "inactive"],
  ["Cc1ccn2cc(Cc3cc(=O)oc4c3ccc3ccccc34)c(=O)nc2c1", "inactive"],
  ["CN1CCN(Cn2nc(-c3cc(Cl)cc(Cl)c3Cl)n(/N=C/c3ccc(Cl)cc3)c2=S)CC1", "inactive"],
  ["CC(C)(C)C(=O)Nc1nc2c(s1)CCc1ccn(S(=O)(=O)c3ccccc3)c1-2", "inactive"],
  ["COc1cc(/C=C/C(=O)c2c(C)n([O-])c3cc(C)c(C)cc3[n+]2=O)cc(OC)c1OC", "inactive"],
  ["COC(=O)c1ccc(NC(N)=NCC(C)(C)COc2ccc(C(F)(F)F)cc2)nc1", "inactive"],
  ["CN1CCN(CC(=O)N(C)c2ccc(N=C(c3ccccc3)c3c(O)[nH]c4ccc(C#N)cc34)cc2)CC1", "active"]
]}
